The values you see were collected from the supplement of paper PMC9112550.

# System: Escherichia coli TOP10;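 also: peptides expressed intracellularly from a pBAD plasmid library in pooled LB shake-flask culture, induced with 0.3% L-arabinose, DNA abundance read by NGS, three biological replicates, DESeq2 with apeglm shrinkage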
# Test name: shrunken log2 fold change of peptide-encoding DNA abundance (4.5 h post-induction vs induction); higher = less antimicrobial activity (less host growth inhibition)
# Conditions: time post-induction: 4.5 h; library: site-saturation at positions 5, 18, 19, 20
Exercise: for every item that follows, state its recorded shrunken log2 fold change.
Answer with a bare number; do not write a unit.

(Q) Report shrunken log2 fold change, nothing else, for this sequence: "RRIRNRPPRLPRPRPRPCMYPRP"
(A) -0.0592

(Q) Report shrunken log2 fold change, nothing else, for this sequence: "RRIRDRPPRLPRPRPRPKHTPRP"
(A) 0.136

(Q) Report shrunken log2 fold change, nothing else, for this sequence: "RRIRYRPPRLPRPRPRPLNEPRP"
(A) -0.0438

(Q) Report shrunken log2 fold change, nothing else, for this sequence: "RRIRYRPPRLPRPRPRPTMAPRP"
(A) 0.12

(Q) Report shrunken log2 fold change, nothing else, for this sequence: "RRIRARPPRLPRPRPRPDWCPRP"
(A) 0.0911
